TESTED TARGET: T1, human IL-17A (human, UniProt Q16552 24-155)
T1 construct: Recombinant human IL-17A (Peprotech Cat. No. 200-17), disulfide-linked homodimer from E. coli; Biotinylated or RPE-labelled in some assays; also called hIL-17A; IL-17A-RPE (labelled)
PROTOCOL DESCRIPTION: SPR (Biacore T200), capture setup: biotinylated IL-17A captured, scFv as analyte
QUANTITY KIND: kon (M⁻¹ s⁻¹)

PRO592 (humanized anti-IL-17A scFv, STR graft of 27-31-C04) (scFv, VL-linker-VH; also called 27-31-C04-sc02; 27_31_C04_sc02) scFv: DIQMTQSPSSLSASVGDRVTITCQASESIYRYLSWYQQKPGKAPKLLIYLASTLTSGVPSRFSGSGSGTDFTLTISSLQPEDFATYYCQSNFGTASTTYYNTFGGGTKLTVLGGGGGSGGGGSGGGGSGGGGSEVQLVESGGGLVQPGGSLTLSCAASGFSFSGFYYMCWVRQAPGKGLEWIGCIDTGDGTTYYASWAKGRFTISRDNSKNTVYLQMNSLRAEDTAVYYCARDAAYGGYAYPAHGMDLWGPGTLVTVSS | 387000
PRO571 (humanized anti-IL-17A scFv, CDR graft of 27-31-C04) (scFv, VL-linker-VH; also called 27-31-C04-sc01; 27_31_C04_sc01) scFv: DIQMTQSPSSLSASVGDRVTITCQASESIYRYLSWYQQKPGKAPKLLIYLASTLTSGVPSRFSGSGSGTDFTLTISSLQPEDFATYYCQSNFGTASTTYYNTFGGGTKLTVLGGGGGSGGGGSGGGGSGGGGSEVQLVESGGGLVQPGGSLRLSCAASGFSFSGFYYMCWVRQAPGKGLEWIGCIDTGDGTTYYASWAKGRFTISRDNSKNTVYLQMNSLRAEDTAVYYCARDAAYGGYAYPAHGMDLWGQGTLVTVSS | 1.21e+06
A1 (humanized anti-IL-17A scFv, CDR graft of 27-07-G02) (scFv, VL-linker-VH; also called 27-07-G02-sc01; 27_07_G02_sc01) scFv: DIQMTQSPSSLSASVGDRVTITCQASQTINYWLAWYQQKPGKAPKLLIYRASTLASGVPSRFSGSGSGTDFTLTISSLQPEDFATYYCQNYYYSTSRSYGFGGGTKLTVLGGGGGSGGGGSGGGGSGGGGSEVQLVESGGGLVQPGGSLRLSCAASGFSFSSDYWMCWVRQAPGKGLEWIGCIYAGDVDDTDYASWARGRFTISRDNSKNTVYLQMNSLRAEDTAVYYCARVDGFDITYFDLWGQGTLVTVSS | 455000
A2 (humanized anti-IL-17A scFv, STR graft of 27-07-G02) (scFv, VL-linker-VH; also called 27-07-G02-sc02) scFv: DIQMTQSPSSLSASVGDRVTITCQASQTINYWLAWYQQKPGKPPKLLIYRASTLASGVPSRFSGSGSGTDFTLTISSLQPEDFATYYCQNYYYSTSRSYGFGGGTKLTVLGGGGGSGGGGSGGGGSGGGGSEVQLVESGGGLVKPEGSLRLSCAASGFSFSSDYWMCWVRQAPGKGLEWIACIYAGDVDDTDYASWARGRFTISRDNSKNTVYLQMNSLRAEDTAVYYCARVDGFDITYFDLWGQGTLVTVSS | 227000
